- Tested on: HPV-16
- assay remarks: qPCR sensitivity against HPV-HNSCC tumor samples diluted among 10 ng normal human DNA
- applied conditions: Sample # 21
# Threshold of tumor cell numbers for HPV-16 detection values compiled below
reported property: Threshold of tumor cell numbers for HPV-16 detection (tumor cells)

molecule: BR E1-6: HPV-16 E1 region primer/probe set, SEQ ID NO: 43-45 (nucleic acid, chemistry not given here) DNA 1: ATGCACAATTGGCAGACACTAA DNA 2: AATCCTTTACAATTTTTGCCTGTGA DNA 3: AGTAATGCAAGTGCCTTTCTAAAAAGTA
quantitative readout: 1.2
--
molecule: E7: previously designed (historical) HPV-16 E7 primers and Taqman probe, SEQ ID NO: 10-12; part of CLIA test (nucleic acid, Taqman probe, labels not given here, part of CLIA test) DNA 1: CCGGACAGAGCCCATTACAA DNA 2: CGAATGTCTACGTGTGTGCTTTG DNA 3: CGCACAACCGAAGCGTAGAGTCACACT
quantitative readout: 1.2
--
molecule: BR E1-5: HPV-16 E1 region primer/probe set, SEQ ID NO: 40-42 (same as SEQ ID NO: 1-3) (nucleic acid, chemistry not given here) DNA 1: GCACAATTGGCAGACACTAAT DNA 2: GCACAATCCTTTACAATTTTTGCC DNA 3: AGTAATGCAAGTGCCTTTCTAAAAAGTAATTC
quantitative readout: 0.6
--
molecule: BR E1-4: HPV-16 E1 region primer/probe set, SEQ ID NO: 37-39 (nucleic acid, chemistry not given here) DNA 1: ATGCACAATTGGCAGACACTA DNA 2: ACAATCCTTTACAATTTTTGCCTGT DNA 3: TAATGCAAGTGCCTTTCTAAAAAGT
quantitative readout: 0.6
--
molecule: E6: previously designed (historical) HPV-16 E6 primers and Taqman probe, SEQ ID NO: 7-9, positive control (nucleic acid, Taqman probe, labels not given here) DNA 1: TCAGGACCCACAGGAGCG DNA 2: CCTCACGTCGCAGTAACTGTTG DNA 3: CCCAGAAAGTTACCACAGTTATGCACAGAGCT
quantitative readout: 1.2
--
molecule: HR E5L2-4: primer/probe set for junction between E5 and L2, SEQ ID NO: 55-57 (same as SEQ ID NO: 4-6) (nucleic acid, chemistry not given here) DNA 1: GCAAAACGCACAAAACGTGC DNA 2: GACATGTACCTGCCTGTTTGC DNA 3: CGGCTACCCAACTTTATAAAACA
quantitative readout: 6.0
--
molecule: BR E6-1: HPV-16 E6 region (172-373 bp) primer/probe set, SEQ ID NO: 58-60 (nucleic acid, chemistry not given here) DNA 1: CAGTTACTGCGACGTGAGGT DNA 2: ACAGCATATGGATTCCCATCTC DNA 3: ACTTTGCTTTTCGGGATTTATGCATAGTA
quantitative readout: 1.2
